Target of assay: DNA polymerase alpha (Cricetulus griseus)
Assay procedure: Compound was evaluated for the concentration which gives half-maximal inhibition of Chinese Hamster Ovary DNA polymerase alpha
Value type: Ki (nM)

Examples from the recorded data:
CCCCc1ccc(Nc2nc(SC)c3[nH]cnc3n2)cc1	1000
CCCCc1ccc(Nc2nc(N)c3[nH]cnc3n2)cc1	14400

P. CCCCc1ccc(Nc2nc(Cl)c3[nH]cnc3n2)cc1
Q. CCCCc1ccc(Nc2nc(OC)c3[nH]cnc3n2)cc1
R. CCCCc1ccc(Nc2ncc3[nH]cnc3n2)cc1 [(4-Butyl-phenyl)-(9H-purin-2-yl)-amine]
Qu. Falling order of Ki, please. Response format: the labels, sorted as the prompt asks.
Ans. R, P, Q
